- Test system: E. coli MS 200-1
- assay.overview: Inhibition of TMA production in whole cells (LC-MS/MS assay for choline TMA-lyase activity, d9-TMA from d9-choline)
- Format: cell-based
- condition.label: Table 2; inhibition of TMA-d9 production, 1 mM choline-d9, anaerobic, 3.5 hrs, 37° C.; read-out: EC50
observed.property: pEC50
Lab note: report pEC50 as minus log10 of the concentration in molar units, number only.

For the compound CN1CC=CC(O)C1 (stereo not shown) , the measured pEC50 on E. coli MS 200-1 was 5.00

Field pEC50 (system: E. coli MS 200-1) for entry `CN1CCCC(=O)C1` = 2.02

Observed pEC50 on E. coli MS 200-1, entry `CN1CC=C[C@H](O)C1` , equals 5.00

Query `CN1CC=C[C@@H](O)C1` on E. coli MS 200-1; pEC50 returned: 4.82
